target of assay: the molecule itself
test: SEC; isolated dimer diluted to 5 μM in standard buffer (20 mM HEPES, 150 mM NaCl, 2 mM β-mercaptoethanol) at pH 7.0, 37 °C, aliquots over 2 h on Superdex 75; dimer to monomers; Kd from the equilibrium dimer fraction, koff from a single exponential decay, kon derived from Kd = koff/kon
readout kind: Kd (nM)
Respond with the bare value in nM.

# input Give its Kd value. Item: forkhead domain of human FoxP1, wild type (domain or fragment) AEVRPPFTYASLIRQAILESPEKQLTLNEIYNWFTRMFAYFRRNAATWKNAVRHNLSLHKCFVRVENVKGAVWTVDEVEFQKRRPQK
# output 800

All values here come from paper PMC6443806.
